# measured-on: CAMK2B (human)
# test-method-notes: KINOMEscan competition binding
# setup-conditions: compound 10.0 µM

[
  {
    "compound-structure-string": "O=C1NC(=O)/C(=C/c2c[nH]c(=O)c(-c3ccc(N4CCNCC4)nc3)c2)S1",
    "kinase still bound, per cent of control, %": 47
  },
  {
    "compound-structure-string": "Cc1cn(-c2cc(NC(=O)c3cccc4cc(-c5ccc(/C=C6\\SC(=N)NC6=O)o5)ccc34)cc(C(F)(F)F)c2)cn1",
    "kinase still bound, per cent of control, %": 29
  },
  {
    "compound-structure-string": "COc1cc(N2CCN(C)CC2)ccc1Nc1ncc2c(n1)N(C)c1ccccc1N(C)C2=O",
    "kinase still bound, per cent of control, %": 92
  },
  {
    "compound-structure-string": "COc1cc(N2CCN(C)CC2)ccc1Nc1ncc2c(n1)N(C)c1sccc1C(=O)N2C",
    "kinase still bound, per cent of control, %": 58
  },
  {
    "compound-structure-string": "COc1cc(N2CCC(O)CC2)ccc1Nc1ncc2c(n1)N1CCc3cccc(c31)C(=O)N2C",
    "kinase still bound, per cent of control, %": 72
  },
  {
    "compound-structure-string": "CN1C(=O)c2ccccc2N(C)c2nc(Nc3ccc(N4CCC(O)CC4)cc3)ncc21",
    "kinase still bound, per cent of control, %": 100
  },
  {
    "compound-structure-string": "CN1CCN(c2ccc(C(=O)Nc3ncc4c(n3)N(C)c3ccccc3C(=O)N4C)cc2)CC1",
    "kinase still bound, per cent of control, %": 98
  },
  {
    "compound-structure-string": "COc1cc(N2CCN(C)CC2)ccc1Nc1ncc2c(n1)Nc1ccccc1NC2=O",
    "kinase still bound, per cent of control, %": 98
  },
  {
    "compound-structure-string": "CN1C(=O)c2ccccc2N(C)c2nc(NS(=O)(=O)c3ccc(N)cc3)ncc21",
    "kinase still bound, per cent of control, %": 100
  }
]

---

# measured-on: TAOK1 (human)
# test-method-notes: KINOMEscan competition binding
# setup-conditions: compound 10.0 µM
endpoint-label: kinase still bound, per cent of control (%)

[
  {
    "compound-structure-string": "N=C1NC(=O)/C(=C/c2c[nH]c(=O)c(-c3ccc(S(N)(=O)=O)cc3)c2)S1",
    "value": 4.2
  },
  {
    "compound-structure-string": "N=C1NC(=O)/C(=C/c2ccc(-c3ccc(Cl)cc3)o2)S1",
    "value": 11
  },
  {
    "compound-structure-string": "CS(=O)(=O)Nc1ccc(-c2cncc(/C=C3\\SC(=N)NC3=O)c2)cc1",
    "value": 1.4
  },
  {
    "compound-structure-string": "CN(C)C1=NC(=O)/C(=C/c2ccc(-c3ccc(S(N)(=O)=O)cc3)o2)S1",
    "value": 9.2
  },
  {
    "compound-structure-string": "N=C1NC(=O)/C(=C/c2ccc(-c3ccccc3O)o2)S1",
    "value": 0
  },
  {
    "compound-structure-string": "O=C1NC(=O)/C(=C/c2ccc(-c3ccc(F)cc3O)o2)S1",
    "value": 8.4
  },
  {
    "compound-structure-string": "COc1cc(N2CCC(O)CC2)ccc1Nc1ncc2c(n1)N(C)c1ccccc1C(=O)N2C",
    "value": 6.8
  }
]
